# Procedure Text: Elimination half life in Beagle dog at 2.5 mg/kg, iv by LC-MS/MS analysis
# Format: ADME, organism-based, Canis lupus familiaris
# Assay Context: in vivo, read-out: beta t1/2 (converted)
Outcome Measure: half-life (h)
Numeric answer only, unit h assumed.

Input line: // query half-life value for entry C[C@@H]1CN2c3c(cc4c(N5CC6(CC6)OC5=O)noc4c3F)CC3(C(=O)NC(=O)NC3=O)[C@H]2[C@H](C)O1
Output line: 3.49

###

# Procedure Text: Cmax in Sprague-Dawley rat at 100 mg/kg, po by LC-MS/MS analysis
# Type: ADME, organism-based
# Design: dose 100 mg/kg, route oral
# Assay Context: in vivo
Outcome Measure: Cmax (ng/mL)
// return numeric value only (unit: ng/mL, not printed)

Input line: Value lookup for Cmax; key = C[C@@H]1CN2c3c(cc4c(N5CC6(CC6)OC5=O)noc4c3F)CC3(C(=O)NC(=O)NC3=O)[C@H]2[C@H](C)O1
Output line: 35400

###

# Test system: Staphylococcus aureus
# Procedure Text: Antibacterial activity against methicillin-resistant Staphylococcus aureus after 18 to 20 hrs by CLSI-protocol based broth microdilution method
# Assay type: functional
Outcome Measure: MIC

Consider the following illustrative entries.
| Chemical Smiles | MIC |
| --- | --- |
| C[C@@H]1CN2c3c(cc4c(N5C[C@@H](C)SC5=O)noc4c3F)CC3(C(=O)NC(=O)NC3=O)[C@H]2[C@H](C)O1 | 0.03 to 0.25 µg/mL |
| CC[C@H]1CN(c2noc3c(F)c4c(cc23)CC2(C(=O)NC(=O)NC2=O)[C@H]2[C@H](C)O[C@H](C)CN42)C(=O)S1 | < 0.03 µg/mL |

Turning now to a further record.
Input line: # query: MIC | item C[C@@H]1CN2c3c(cc4c(N5CC6(CC6)OC5=O)noc4c3C#N)CC3(C(=O)NC(=O)NC3=O)[C@H]2[C@H](C)O1 | system: Staphylococcus aureus
Output line: 0.03 to 8 µg/mL

###

# Procedure Text: AUCt in Beagle dog at 2.5 mg/kg, iv by LC-MS/MS analysis
# Assay type: ADME, organism-based, Canis lupus familiaris
# Assay Context: in vivo
Outcome Measure: AUC(0-t) (ng·h/mL)
Field: numeric (ng·h/mL). Do not append units.

Input line: Could you tell me which AUC(0-t) is on file for C[C@@H]1CN2c3c(cc4c(N5CC6(CC6)OC5=O)noc4c3F)CC3(C(=O)NC(=O)NC3=O)[C@H]2[C@H](C)O1 ?
Output line: 9100

###

Each item that follows carries a reported half-life.
# Procedure Text: Elimination half life in CD1 mouse at 10 mg/kg, po by LC-MS/MS analysis
# Assay type: ADME, organism-based
# Assay Context: in vivo, read-out: beta t1/2 (converted)
Put your answer as a value accompanied by its unit after it.

| Chemical Smiles | half-life |
| --- | --- |
| C[C@@H]1CN2c3c(cc4c(N5C[C@H](C)SC5=O)noc4c3F)CC3(C(=O)NC(=O)NC3=O)[C@H]2[C@H](C)O1 | 7.68 h |
| C[C@@H]1CN2c3c(cc4c(N5CCOC5=O)noc4c3F)CC3(C(=O)NC(=O)NC3=O)[C@H]2[C@H](C)O1 | 3.41 h |

Next:
Input line: For C[C@@H]1CN2c3c(cc4c(N5CC6(CC6)OC5=O)noc4c3F)CC3(C(=O)NC(=O)NC3=O)[C@H]2[C@H](C)O1 , what is its reported half-life?
Output line: 6.2 h

###

# Tested on: Staphylococcus aureus
# Procedure Text: Antibacterial activity against methicillin-resistant Staphylococcus aureus after 18 to 20 hrs by CLSI-protocol based broth microdilution method
# Format: functional
Active and inactive are the calls of the source. No cut-off for these calls is given here.
Outcome Measure: MIC

The examples below pair each entry with its known result.
| Molecule | MIC |
| --- | --- |
| C[C@@H]1CN2c3c(cc4c(N5CCOCC5)ncnc4c3F)CC3(C(=O)NC(=O)NC3=O)[C@H]2[C@H](C)O1 (racemic) | inactive |
| Cc1ncnc2c(F)c3c(cc12)CC1(C(=O)NC(=O)NC1=O)[C@H]1[C@H](C)O[C@H](C)CN31 (racemic) | inactive |
| C[C@@H]1CN2c3c(cc4c(N5C[C@H](c6ccccc6)SC5=O)noc4c3F)CC3(C(=O)NC(=O)NC3=O)[C@H]2[C@H](C)O1 | 0.125 to 2 µg/mL |
| C[C@@H]1CN2c3c(cc4c(N5CCOC5=S)noc4c3F)CC3(C(=O)NC(=O)NC3=O)[C@H]2[C@H](C)O1 (racemic) | 1 to 2 µg/mL |

Input line: Tell me the measured MIC of CC[C@@H]1CSC(=O)N1c1noc2c(F)c3c(cc12)CC1(C(=O)NC(=O)NC1=O)[C@H]1[C@H](C)O[C@H](C)CN31 , please.
Output line: 0.5 to 2 µg/mL

Input line: Same lookup for C[C@@H]1CN2c3c(cc4c(N5CC6(COC6)OC5=O)noc4c3F)CC3(C(=O)NC(=O)NC3=O)[C@H]2[C@H](C)O1 , please.
Output line: 0.03 to 1 µg/mL

Input line: Moving on to C[C@@H]1CN2c3c(cc4c(N5C[C@H](CS(C)(=O)=O)SC5=O)noc4c3F)CC3(C(=O)NC(=O)NC3=O)[C@H]2[C@H](C)O1
Output line: 1 to 8 µg/mL

###

Entries and their MIC values follow.
# System: Streptococcus pyogenes
# Procedure Text: Antibacterial activity against Streptococcus pyogenes after 18 to 20 hrs by CLSI-protocol based broth microdilution method
# Assay type: functional
# Assay Context: Streptococcus pyogenes; read-out: MIC

Illustrative cases are given below, each with its answer.
| Compound | MIC |
| --- | --- |
| C[C@@H]1CN2c3c(cc4c(N5CC6(CCC6)OC5=O)noc4c3F)CC3(C(=O)NC(=O)NC3=O)[C@H]2[C@H](C)O1 | 0.25 to 0.5 µg/mL |
| C[C@@H]1CN2c3c(cc4c(N5C(=O)S[C@@H]6CCC[C@@H]65)noc4c3F)CC3(C(=O)NC(=O)NC3=O)[C@H]2[C@H](C)O1 | < 0.03 µg/mL |
| C[C@@H]1CN2c3c(cc4c(N5C[C@H](CN=[N+]=[N-])SC5=O)noc4c3F)CC3(C(=O)NC(=O)NC3=O)[C@H]2[C@H](C)O1 | 0.125 to 1 µg/mL |
| C[C@@H]1CN2c3c(cc4c(N5C(=O)OC[C@@H]5C)noc4c3C#N)CC3(C(=O)NC(=O)NC3=O)[C@H]2[C@H](C)O1 | 4 to 8 µg/mL |
| CC[C@@H]1CSC(=O)N1c1noc2c(F)c3c(cc12)CC1(C(=O)NC(=O)NC1=O)[C@H]1[C@H](C)O[C@H](C)CN31 | 4 µg/mL |

From here, focus on the item given below.
Input line: Reported MIC for C[C@@H]1CN2c3c(cc4c(N5CCCOC5=O)noc4c3F)CC3(C(=O)NC(=O)NC3=O)[C@H]2[C@H](C)O1 (racemic) : what is it?
Output line: 4 µg/mL

###

# System: Streptococcus pneumoniae
# Procedure Text: Antibacterial activity against penicillin-resistant Streptococcus pneumoniae after 18 to 20 hrs by CLSI-protocol based broth microdilution method
# Assay type: functional
Active and inactive are the calls of the source. The calls are words filed in the database; no cut-off is given here.
Outcome Measure: MIC

// solved cases for MIC follow
| Compound | Measured Value |
| --- | --- |
| C[C@@H]1CN2c3c(cc4c(N5C[C@H](CO)SC5=O)noc4c3F)CC3(C(=O)NC(=O)NC3=O)[C@H]2[C@H](C)O1 | 0.125 to 0.25 mg/L |
| C[C@@H]1CN2c3c(cc4c(N5CC6(CC6)OC5=O)noc4c3C#N)CC3(C(=O)NC(=O)NC3=O)[C@H]2[C@H](C)O1 | 1 to 2 mg/L |
| C[C@@H]1CN2c3c(cc4c(N5CCCOC5=O)noc4c3F)CC3(C(=O)NC(=O)NC3=O)[C@H]2[C@H](C)O1 (racemic) | 4 to 8 mg/L |
| C[C@@H]1CN2c3c(cc4c(N5C(=O)OC[C@@H]5C)noc4c3F)CC3(C(=O)N(C)C(=O)N(C)C3=O)[C@H]2[C@H](C)O1 | inactive |
| C[C@@H]1CN2c3c(cc4c(N5CCOC5=O)ncnc4c3F)CC3(C(=O)NC(=O)NC3=O)[C@H]2[C@H](C)O1 (relative stereo) | inactive |

Input line: Tell me the measured MIC of C[C@@H]1CN2c3c(cc4c(N5C(=O)OC[C@@H]5C)noc4c3F)CC3(C(=O)NC(=S)NC3=O)[C@H]2[C@H](C)O1 , please.
Output line: inactive

Input line: Also check C[C@@H]1CN2c3c(cc4c(N5CC6(CC6)OC5=O)noc4c3F)CC3(C(=O)NC(=O)NC3=O)[C@H]2[C@H](C)O1 (racemic)
Output line: ≤ 0.03 mg/L

###

# Procedure Text: Volume of distribution at steady state in Beagle dog at 2.5 mg/kg, iv by LC-MS/MS analysis
# Format: ADME, organism-based, Canis lupus familiaris
# Assay Context: in vivo, read-out: Vdss
Outcome Measure: Vd (L/kg)
Dear colleague, please return just the value in L/kg, with no unit written.

Input line: For C[C@@H]1CN2c3c(cc4c(N5CC6(CC6)OC5=O)noc4c3F)CC3(C(=O)NC(=O)NC3=O)[C@H]2[C@H](C)O1 , what is its reported Vd?
Output line: 1
